Readings of IC50 for the listed molecules
- Assayed Target: HASPIN (Homo sapiens, UniProt Q8TF76)
- Sequence (Q8TF76 1-798): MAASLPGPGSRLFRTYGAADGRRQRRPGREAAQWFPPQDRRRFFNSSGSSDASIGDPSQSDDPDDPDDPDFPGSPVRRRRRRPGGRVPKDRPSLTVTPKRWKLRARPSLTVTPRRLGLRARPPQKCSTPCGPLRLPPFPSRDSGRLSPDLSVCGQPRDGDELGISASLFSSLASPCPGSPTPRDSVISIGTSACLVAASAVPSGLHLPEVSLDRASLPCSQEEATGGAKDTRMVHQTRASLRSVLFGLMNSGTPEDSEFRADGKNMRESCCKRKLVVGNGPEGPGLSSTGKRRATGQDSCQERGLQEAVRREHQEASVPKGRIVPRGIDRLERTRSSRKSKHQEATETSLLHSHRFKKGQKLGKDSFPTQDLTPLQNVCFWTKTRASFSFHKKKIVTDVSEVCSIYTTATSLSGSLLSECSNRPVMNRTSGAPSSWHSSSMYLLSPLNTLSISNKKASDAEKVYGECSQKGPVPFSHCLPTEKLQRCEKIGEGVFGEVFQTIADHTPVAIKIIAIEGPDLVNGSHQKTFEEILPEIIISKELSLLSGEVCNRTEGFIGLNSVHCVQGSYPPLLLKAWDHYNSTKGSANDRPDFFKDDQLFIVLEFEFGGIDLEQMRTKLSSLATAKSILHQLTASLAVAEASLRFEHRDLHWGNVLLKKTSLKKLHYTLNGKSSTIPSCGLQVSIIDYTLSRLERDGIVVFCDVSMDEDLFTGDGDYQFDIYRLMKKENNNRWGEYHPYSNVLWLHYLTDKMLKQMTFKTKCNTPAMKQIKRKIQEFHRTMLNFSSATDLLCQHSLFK
Report only the number, with the unit nM understood.

// worked examples, IC50 included
> print(dat)
                      smiles.representation                         assayed.target  recorded.metric  numeric.readout
1  N#CC1(CNc2nc(-c3ccnc(Cl)c3)cn3cc(C(N)=O)nc23)CCNCC1  HASPIN (Homo sapiens, UniProt Q8TF76)             IC50             59.6
2  NC(=O)c1cn2cc(-c3ccnc(N)c3)nc(NCC3(F)CCNCC3)c2n1  HASPIN (Homo sapiens, UniProt Q8TF76)             IC50             34.5

// next entry
Measured IC50, NC(=O)c1cn2cc(-c3ccns3)nc(NCC3(F)CCNCC3)c2n1 : 85.6
